# System: BDF1 mice, B16 melanoma ip, median survival T/C
# protocol_notes: NCI In Vivo Anticancer Drug Screen. Data for tumor model B16 Melanoma (intraperitoneal) in B6D2F1 (BDF1) mice
# protocol_conditions: endpoint: median survival time; dose: 50.0 mg/kg/injection; schedule: Q01DX009 (ip); vehicle: saline; higher = longer survival
Inconclusive results and toxic doses are left out.

{"compound": "NN1CCCC1", "target_entity": "BDF1 mice, B16 melanoma ip, median survival T/C", "T/C": "102 % of control"}
{"compound": "CCC(=O)c1ccc2c(c1)N(C(C)CN(C)C)c1ccccc1S2 (stereo not drawn)", "target_entity": "BDF1 mice, B16 melanoma ip, median survival T/C", "T/C": "105 % of control"}
{"compound": "CC(N)C(=O)NC(C(=O)O)C(C)O (stereo not drawn)", "target_entity": "BDF1 mice, B16 melanoma ip, median survival T/C", "T/C": "100 % of control"}
{"compound": "NC(=O)c1ncc[nH]c1=O", "target_entity": "BDF1 mice, B16 melanoma ip, median survival T/C", "T/C": "118 % of control"}
{"compound": "CN(C)CCCN1c2ccccc2CCc2ccc(Cl)cc21", "target_entity": "BDF1 mice, B16 melanoma ip, median survival T/C", "T/C": "98 % of control"}
{"compound": "O=C(O)C(Cl)Cc1cnc[nH]1 (stereo not drawn)", "target_entity": "BDF1 mice, B16 melanoma ip, median survival T/C", "T/C": "111 % of control"}
{"compound": "COc1cc(C)c2c(c1C=O)Oc1c(c(C)c(O)c3c1C(O)OC3=O)OC2=O (stereo not drawn)", "target_entity": "BDF1 mice, B16 melanoma ip, median survival T/C", "T/C": "87 % of control"}
{"compound": "CC1CNC(=O)O1 (stereo not drawn)", "target_entity": "BDF1 mice, B16 melanoma ip, median survival T/C", "T/C": "100 % of control"}
